Field: IC50. Provide a value for each of the compounds that follow.
# ASSAYED TARGET: Rac GTPase-activating protein 1 (Homo sapiens, UniProt Q9H0H5)
# Sequence (Q9H0H5 whole entry): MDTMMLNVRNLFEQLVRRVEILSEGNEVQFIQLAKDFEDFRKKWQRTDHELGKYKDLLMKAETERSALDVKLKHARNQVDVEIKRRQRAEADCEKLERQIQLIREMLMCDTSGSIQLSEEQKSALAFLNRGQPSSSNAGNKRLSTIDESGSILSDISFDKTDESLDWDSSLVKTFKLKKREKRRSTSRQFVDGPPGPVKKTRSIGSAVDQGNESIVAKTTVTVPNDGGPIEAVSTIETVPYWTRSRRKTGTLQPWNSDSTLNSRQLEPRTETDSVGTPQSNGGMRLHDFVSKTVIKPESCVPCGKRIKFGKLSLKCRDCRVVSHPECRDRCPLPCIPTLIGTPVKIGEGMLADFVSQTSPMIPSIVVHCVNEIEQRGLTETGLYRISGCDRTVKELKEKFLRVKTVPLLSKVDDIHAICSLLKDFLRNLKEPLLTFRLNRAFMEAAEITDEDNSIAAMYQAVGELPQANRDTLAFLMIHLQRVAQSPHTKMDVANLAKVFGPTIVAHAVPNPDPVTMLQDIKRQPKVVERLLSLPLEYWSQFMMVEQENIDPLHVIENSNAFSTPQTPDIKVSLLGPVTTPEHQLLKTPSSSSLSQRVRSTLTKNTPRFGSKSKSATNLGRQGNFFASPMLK
# TEST NAME: blockers of MgcRacGAP-driven Rac1 GTP hydrolysis – biochemical, ADP Hunter fluorescence, primary and confirmatory, confirmation (AID 624330)
# Assay type: functional
The source made the active and inactive calls.

Recorded IC50, per entry:
>  <TEST SMILES>
CC1(C)OC(=O)C(N=Nc2ccc(O)cc2)=C(O)O1

>  <TEST READOUT>
IC50

>  <VALUE OBSERVED>
20.9 µM (active)

$$$$
>  <TEST SMILES>
C/N=c1\scc(C)n1/N=C/c1cc(Br)c(O)c(Br)c1

>  <TEST READOUT>
IC50

>  <VALUE OBSERVED>
77 µM (active)

$$$$
>  <TEST SMILES>
COc1cc(/C=C2/C(=O)ON=C2c2ccccc2)ccc1O

>  <TEST READOUT>
IC50

>  <VALUE OBSERVED>
100 µM (active)

$$$$
>  <TEST SMILES>
CCOc1ccccc1/C=c1\sc2ncnn2c1=O

>  <TEST READOUT>
IC50

>  <VALUE OBSERVED>
48.7 µM (active)

$$$$
>  <TEST SMILES>
O=C1/C(=C\c2ccc(O)cc2)SC(=S)N1/N=C/c1ccc(O)cc1

>  <TEST READOUT>
IC50

>  <VALUE OBSERVED>
105 µM (active)

$$$$
>  <TEST SMILES>
CCOC(=O)/C(C#N)=C1/C(=O)N(Cc2ccccc2)c2ccccc21

>  <TEST READOUT>
IC50

>  <VALUE OBSERVED>
61 µM (active)

$$$$

Required: IC50, one value per compound below.
1. C#CCOCCOCCOCCNc1nc(N2CCN(C(=O)[C@H](CCCCN)n3cc(CN)nn3)CC2)nc(N2CCN(C(=O)[C@H](CCC(=O)O)n3cc([C@@H](N)CCCCN)nn3)CC2)n1
2. COc1ccc(-c2c[nH]nc2-c2ccc(O)cc2O)cc1
3. Cc1cccc2c(N)c3c(nc12)N(C)CC3
4. COc1cc(/C=N/NC(=O)CCC(=O)Nc2ccc(F)cc2)ccc1O

1. 190 µM (active)
2. 43.9 µM (active)
3. 115 µM (active)
4. 35.8 µM (active)

* * *

# ASSAYED TARGET: Nonstructural protein 1 (Influenza A virus)
# Sequence (Q194T2 whole entry): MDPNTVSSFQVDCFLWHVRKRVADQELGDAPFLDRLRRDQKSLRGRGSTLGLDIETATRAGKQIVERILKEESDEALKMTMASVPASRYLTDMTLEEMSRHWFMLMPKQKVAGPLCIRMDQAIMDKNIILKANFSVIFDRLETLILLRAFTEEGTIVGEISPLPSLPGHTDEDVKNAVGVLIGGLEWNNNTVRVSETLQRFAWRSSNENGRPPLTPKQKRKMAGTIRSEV
# Type: functional, Influenza A virus (A/California/07/2009(H1N1))
Calls of active or inactive are those of the source.
TEST READOUT: IC50

Required: IC50, one value per molecule below.
1. O=C(Nc1cccc(Cl)c1)c1cc(N=Nc2ccc([N+](=O)[O-])cc2Cl)ccc1O
2. COCC/N=c1\scc(-c2cccs2)n1/N=C/c1ccc(O)c(O)c1O
3. C=CCNc1nc(-c2ccccn2)nnc1-c1ccccc1
4. C/C(=N\NC(=O)c1ccccc1F)c1ccccn1
5. Oc1cc(-c2cccnc2)cc2cccnc12

1: 22.1 µM (active); 2: 42.9 µM (active); 3: 1.25 µM (active); 4: 5.72 µM (active); 5: 15.6 µM (active)

The reported IC50 value, Nonstructural protein 1 (Influenza A virus), for O=C(CNCc1ccccn1)Nc1cc(S(=O)(=O)N2CCCCC2)ccc1Cl reads 6.83 µM (active)

* * *

# ASSAYED TARGET: Adenosylmethionine-8-amino-7-oxononanoate aminotransferase (Mycobacterium tuberculosis)
# Sequence (P9WQ81 whole entry): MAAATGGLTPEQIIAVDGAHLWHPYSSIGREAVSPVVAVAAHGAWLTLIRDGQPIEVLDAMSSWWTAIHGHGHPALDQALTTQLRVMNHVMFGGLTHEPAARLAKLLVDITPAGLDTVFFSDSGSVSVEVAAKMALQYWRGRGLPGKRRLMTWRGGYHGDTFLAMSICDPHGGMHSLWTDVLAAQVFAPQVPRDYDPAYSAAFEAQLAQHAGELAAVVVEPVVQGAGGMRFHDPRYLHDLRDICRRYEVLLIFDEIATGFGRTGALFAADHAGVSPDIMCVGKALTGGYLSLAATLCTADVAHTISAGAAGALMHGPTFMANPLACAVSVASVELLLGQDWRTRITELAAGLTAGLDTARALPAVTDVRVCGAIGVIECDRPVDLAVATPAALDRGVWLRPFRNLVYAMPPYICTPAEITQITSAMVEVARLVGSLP
# TEST NAME: Mycobacterium tuberculosis BioA enzyme inhibitor Measured in Biochemical System Using Plate Reader - 2163-02_Inhibitor_Dose_CherryPick_Activity.
# Assay type: functional, Mycobacterium tuberculosis UT205
The source made the active and inactive calls.
TEST READOUT: AC50

>  <MOLECULE>
C=C(C)CSc1nc(N)c2c3c(sc2n1)CCC3

>  <AC50>
18.2 µM (active)

$$$$
>  <MOLECULE>
O=C(Nc1ccc(F)c(F)c1)c1ccc(-n2cncn2)c([N+](=O)[O-])c1

>  <AC50>
1.49 µM (active)

$$$$
>  <MOLECULE>
COc1ccccc1S(=O)(=O)N1CC[C@@H]2[C@H](CO)Nc3ccc(-c4cccc(C#N)c4)cc3[C@@H]21

>  <AC50>
18.5 µM (active)

$$$$

Alright, here's another molecule for you.
Consider CC1=C(C#N)C(c2cccnc2)C2=C(O)CC(c3ccc(Cl)cc3)CC2=N1 (centres undefined) . Its measured AC50 is 0.67 µM (active)

* * *

# TEST NAME: blockers of HIV-1 envelope-mediated cell-cell fusion – cherry-pick, dose response (AID 652057)
# Format: functional, cell-based
The source made the active and inactive calls.
Field: AC50. Provide a value for each of the compounds that follow.

Recorded AC50, per entry:
>  <COMPOUND>
Cc1ccc(S(=O)(=O)N[C@H]2C=C[C@H](CC(=O)N3CCC(Cc4ccccc4)CC3)O[C@H]2CO)cc1

>  <TEST READOUT>
AC50

>  <VALUE OBSERVED>
69.4 µM (active)

$$$$
>  <COMPOUND>
CCN(CC(O)c1cccc(O)c1)C(=O)C12CC3CC(CC(C3)C1)C2 (centres undefined)

>  <TEST READOUT>
AC50

>  <VALUE OBSERVED>
0.33 µM (active)

$$$$
>  <COMPOUND>
C[C@H](C(=O)N(C)C[C@@H]1OCc2ccccc2-c2c(n(C)c3ccccc23)C(=O)N([C@@H](C)CO)C[C@H]1C)c1ccccc1

>  <TEST READOUT>
AC50

>  <VALUE OBSERVED>
4.94 µM (active)

$$$$

Consider COc1cccc(NC(=O)N(C)C[C@@H]2OCc3ccccc3-c3c(n(C)c4ccccc34)C(=O)N([C@@H](C)CO)C[C@@H]2C)c1 . Its measured AC50 is < 0.26 µM (active)

* * *

# ASSAYED TARGET: Heat shock factor protein 1 (Mus musculus)
# Sequence (P38532 whole entry): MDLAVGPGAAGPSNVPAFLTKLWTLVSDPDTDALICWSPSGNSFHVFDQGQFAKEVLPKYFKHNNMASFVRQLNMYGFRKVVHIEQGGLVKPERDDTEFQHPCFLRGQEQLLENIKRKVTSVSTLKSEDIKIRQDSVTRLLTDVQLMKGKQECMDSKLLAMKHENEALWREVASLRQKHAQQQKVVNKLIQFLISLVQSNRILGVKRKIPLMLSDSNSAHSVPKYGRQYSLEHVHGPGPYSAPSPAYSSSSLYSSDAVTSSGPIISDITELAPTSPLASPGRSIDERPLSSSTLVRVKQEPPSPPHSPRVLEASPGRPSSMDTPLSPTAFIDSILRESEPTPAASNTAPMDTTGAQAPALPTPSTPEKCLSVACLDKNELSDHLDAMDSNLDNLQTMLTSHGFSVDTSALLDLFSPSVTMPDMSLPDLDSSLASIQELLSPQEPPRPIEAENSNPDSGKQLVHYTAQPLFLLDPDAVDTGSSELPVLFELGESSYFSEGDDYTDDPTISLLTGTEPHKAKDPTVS
# TEST NAME: enhancement of HSF1-driven luciferase signal – cell-based, NIH3T3, luminescence, dose retest, confirmation (AID 435004);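 further: stress induced by proteasome inhibitor MG132 added 30 min after compound; luciferase reporter driven by HSF1 response element in NIH3T3 cells; actives raise luminescence as potentiators of the MG132 stress response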
# Format: functional
Active and inactive are the calls of the source.
I would appreciate it if you answered using one of these outcomes: Y = active, N = inactive

Example results:
>  <TEST SMILES>
CCCn1c(SCC(=O)c2cc(OC)ccc2OC)nnc1C(C)C

>  <ASSIGNED CATEGORY>
Y

$$$$
>  <TEST SMILES>
O=C1CCCN1CCCNc1c([N+](=O)[O-])nn(-c2ccc(Cl)cc2)[n+]1[O-]

>  <ASSIGNED CATEGORY>
Y

$$$$
>  <TEST SMILES>
Clc1ccc(SCc2csc(N3CCOCC3)n2)cc1

>  <ASSIGNED CATEGORY>
Y

$$$$
>  <TEST SMILES>
NC(=O)c1ccc(C(F)(F)F)n(Cc2cccc(Cl)c2)c1=O

>  <ASSIGNED CATEGORY>
N

$$$$
>  <TEST SMILES>
CCOC(=O)c1ccc(/N=c2\sc(C(=O)OC)cc(=O)n2-c2ccc(C(=O)OCC)cc2)cc1

>  <ASSIGNED CATEGORY>
Y

$$$$
>  <TEST SMILES>
Fc1ccc(NC(S)=Nc2cc(Cl)ccc2Cl)cc1

>  <ASSIGNED CATEGORY>
N

$$$$
>  <TEST SMILES>
S=C(Nc1ccccc1)Nc1ccc(Cl)cn1

>  <ASSIGNED CATEGORY>
N

$$$$
>  <TEST SMILES>
COc1cc(NC(=O)Cc2cccs2)ccc1-n1cnnn1

>  <ASSIGNED CATEGORY>
N

$$$$
>  <TEST SMILES>
Nc1nc(Br)c2c(F)cccc2c1-c1ccc(Cl)cc1

>  <ASSIGNED CATEGORY>
N

$$$$

Query compound follows.
Query: recorded result category for CCOc1cc([N+](=O)[O-])cc(/C=C2/NC(=O)N(Cc3ccccc3F)C2=O)c1O in this test
N
